# Tested on: HOP-92 NSCLC
# Test protocol: NCI-60 one-dose screen, 48 h (100 = growth as untreated, 0 = no growth, -100 = all killed)
# Condition set: 10 µM unless noted
About 83,000 compounds went through this panel and 20% of them were active in at least one assay; those are over-represented in the sample as a whole.
1.0 means recorded growth is 80% or above; 0.0 means it is below 80%.

Request: Is growth at least 80%? Consider CCOC(=O)/C(F)=C/C1CC1C1CCN(C(=O)OC(C)(C)C)CC1 (stereo not given)
Response: 1.0

Request: Is growth at least 80%? Consider O=C1CC(c2ccc(I)cc2)OC2C=Cc3ccccc3C12 (stereo not given)
Response: 1.0

Request: Is growth at least 80%? Consider COc1nc(N)ncc1-c1ccc2ncnc(N3CCc4cc(F)c(Cl)cc43)c2c1
Response: 0.0

Request: Is growth at least 80%? Consider COc1ccc(N=Nc2c(N)nn3c(-c4cc5cc(Br)ccc5oc4=O)ccnc23)cc1
Response: 0.0

Request: Is growth at least 80%? Consider CN1C(=O)/C(=C/c2ccco2)S/C1=N/c1nccs1
Response: 1.0

Request: Is growth at least 80%? Consider O=C1Nc2cc(-c3ccc(NS(=O)(=O)c4ccc(C(F)(F)F)cc4)cc3)ccc2/C1=C/c1ccc[nH]1
Response: 0.0

Request: Is growth at least 80%? Consider COc1ccc2[nH]c(=O)cc(-n3ncc(C(=O)/C=C/c4cc(OC)c(OC)c(OC)c4)c3C)c2c1
Response: 0.0

Request: Is growth at least 80%? Consider CC(C)(C)OC(=O)N1C/C(=C\c2ccc(F)cc2)C(=O)/C(=C/c2ccc(F)cc2)C1
Response: 0.0

// provenance: PubChem BioAssay (NCI)
